B1: library; a variant is named by its letters at N, in order (parent)
chain: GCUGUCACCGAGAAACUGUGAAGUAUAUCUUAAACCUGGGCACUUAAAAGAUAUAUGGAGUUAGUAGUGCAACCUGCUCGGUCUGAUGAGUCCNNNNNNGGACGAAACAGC

variants of: B1; assay: normalized RNA/DNA level with ligand (relative to sTRSVctl = 100) (log10 (% of sTRSVctl)); HEK293T; ligand: cyclic di-GMP (c-di-GMP-II aptamer); ligand concentration (+) RNA-Seq: 1 mM; higher = less ribozyme self-cleavage, higher mRNA level; settings: reporter: mCherry (pCS4076), ligand present: yes
REPORTED METRIC: normalized RNA/DNA level with ligand (log10)

# VARIANT, RESULT
rows = [
    ("CGCCUG", 1.82),
    ("UAAAGU", 1.77),
    ("GGCUAU", 1.78),
    ("GGCUCG", 1.87),
    ("CUACUA", 1.64),
    ("CAAACU", 1.68),
    ("CCAAAU", 1.71),
    ("UUCUGA", 1.83),
    ("UAAAGC", 1.82),
    ("UUGAUG", 1.75),
]

Noted for CUCACG : its normalized RNA/DNA level with ligand (log10) reads 1.86

Noted for UUUAAA : its normalized RNA/DNA level with ligand (log10) reads 1.79

Noted for CUAUGA : its normalized RNA/DNA level with ligand (log10) reads 1.76

Noted for AGCUUA : its normalized RNA/DNA level with ligand (log10) reads 1.76

Noted for CCUGUA : its normalized RNA/DNA level with ligand (log10) reads 1.73

Noted for CGCCGC : its normalized RNA/DNA level with ligand (log10) reads 1.91

Noted for GCAAGU : its normalized RNA/DNA level with ligand (log10) reads 1.64

Noted for ACCAAU : its normalized RNA/DNA level with ligand (log10) reads 1.7

Noted for CUUCGU : its normalized RNA/DNA level with ligand (log10) reads 1.87

The measurements presented in this section are drawn from the supplement of paper PMC6757056.
